From: patent US8232407B2

Give Nilaparvata lugens Mortality (%) 500 ppm for every item shown.
tested on: Nilaparvata lugens; test: Insecticidal activities to plant hopper, spraying method; assay type: in vivo; settings: in vivo
State the result as a value with its unit after it.

Input line: Sample O=[N+]([O-])C(=Cc1cc(Cl)c(Cl)o1)C1=NCCN1Cc1ccc(Cl)nc1 [Compound 8] — what was its Nilaparvata lugens Mortality (%) 500 ppm?
Output line: 100%

Input line: Next compound: CN=C(C(=Cc1ccco1)[N+](=O)[O-])N(C)Cc1ccc(Cl)nc1 [Compound 161]
Output line: 65%

Input line: Next compound: O=[N+]([O-])C(=Cc1ccc(Cl)o1)C1=NCCN1Cc1cnc(Cl)s1 [Compound 71]
Output line: 100%

Input line: Next compound: C[N+]1=C(C(=Cc2ccc(Br)o2)[N+](=O)[O-])N(Cc2cnc(Cl)s2)CC1.[Cl-] [Compound 279]
Output line: 100%

###

Give Pseudaletia separate Walker Mortality (%) 500 ppm for every item shown.
test system: Pseudaletia separate Walker; assay: Insecticidal activities to armyworm, leaf dipping and feeding; format: in vivo; conditions: in vivo
Output spec: scalar in %, unitless text.

Input line: Give recorded Pseudaletia separate Walker Mortality (%) 500 ppm with Pseudaletia separate Walker for the following compound: Cc1coc(C=C(C2=NCCN2Cc2ccc(Cl)nc2)[N+](=O)[O-])c1
Output line: 100

Input line: Next compound: C[N+]1=C(C(=Cc2ccc(Cl)o2)[N+](=O)[O-])N(Cc2cnc(Cl)s2)CC1.[Cl-]
Output line: 100

Input line: Next compound: O=[N+]([O-])C(=Cc1ccc(Cl)o1)C1=NCCCN1Cc1ccc(Cl)nc1
Output line: 100

Input line: Next compound: N#CC(=Cc1oc(Cl)cc1Cl)C1=NCCN1Cc1ccc(Cl)nc1
Output line: 86

Input line: Next compound: CC[N+]1=C(C(=Cc2ccsc2)[N+](=O)[O-])N(Cc2ccc(Cl)nc2)CC1.[Cl-]
Output line: 100

Input line: Next compound: O=[N+]([O-])C(=Cc1ccccc1O)C1=NCCN1Cc1ccc(Cl)nc1
Output line: 89

Input line: Next compound: N#CC(=Cc1cc(Cl)c(Cl)s1)C1=NCCN1Cc1ccc(Cl)nc1
Output line: 97

Input line: Next compound: CC(c1ccc(Cl)nc1)N1CCN=C1C(=Cc1cccs1)[N+](=O)[O-] (racemic)
Output line: 100

Input line: Next compound: Cn1cccc1C=C(C1=[N+](C)CCN1Cc1ccc(Cl)nc1)[N+](=O)[O-].[Cl-]
Output line: 100

Input line: Next compound: O=[N+]([O-])C(=Cc1cc(Br)co1)C1=NCCN1CC1CCOC1 (centres unmarked)
Output line: 90

Input line: Next compound: CC(=C(C1=NCCN1Cc1ccc(Cl)nc1)[N+](=O)[O-])c1ccco1
Output line: 77

Input line: Next compound: C[N+]1=C(C(=Cc2cc(Cl)c(Cl)s2)[N+](=O)[O-])N(Cc2ccc(Cl)nc2)CC1.[Cl-]
Output line: 100

Input line: Next compound: O=[N+]([O-])C(=Cc1ccc(Br)o1)C1=NCCCN1Cc1ccc(Cl)nc1
Output line: 100

Input line: Next compound: C[N+]1=C(C(=Cc2oc(Br)cc2Br)[N+](=O)[O-])N(Cc2ccc(Cl)nc2)CC1.[Cl-]
Output line: 100

Input line: Next compound: O=[N+]([O-])C(=Cc1ccc(Br)s1)C1=NCCN1Cc1ccc(Cl)nc1
Output line: 100

Input line: Next compound: CC(c1ccc(Cl)nc1)N1CCN=C1C(=Cc1ccoc1)[N+](=O)[O-] (racemic)
Output line: 100

Input line: Next compound: Cc1ccc(C=C(C2=NCCN2Cc2cnc(Cl)s2)[N+](=O)[O-])o1
Output line: 100
